Would you mind telling me the reported melting point of each entry?

Illustrative cases are given below, each with its answer.
CCCCC(=O)Nc1cc(-c2sc(CC)nc2-c2cccc(C)c2)ccn1 [H 87-1] : 81 to 82 °C
CSc1ccc(-c2nc(-c3cccc(C)c3)c(-c3ccnc(NC(=O)c4cccs4)c3)s2)cc1 [D 16-17] : 145 to 147 °C
CCC(=O)Nc1cc(-c2sc(CC)nc2-c2ccc(F)cc2)ccn1 [H 84-2] : 156 to 157 °C
CCc1nc(-c2cccc(Cl)c2)c(-c2ccnc(NC(=O)CC3CCCC3)c2)s1 [H 90-1] : 121 to 122 °C
CCCc1cccc(-c2nc(CC)sc2-c2ccnc(NC(C)=O)c2)c1 [H 82-9] : 121 to 122 °C

Please give melting point, item by item, for the list that follows.
1. CCc1nc(-c2cccc(C(C)C)c2)c(-c2ccnc(NC(C)=O)c2)s1 [H 82-8]
2. Cc1cccc(-c2nc(-c3ccc([S+](C)[O-])cc3)sc2-c2cc(C)nc(C)c2)c1 (stereo not drawn) [H 55]
3. CC(=O)Nc1cc(-c2sc(C3CCN(C(C)=O)CC3)nc2-c2cccc(Cl)c2)ccn1 [H 93]
4. O=C(Nc1nc(-c2ccc(F)cc2)c(-c2ccnc(NC3CCCCC3)c2)s1)c1cccnc1 [H 42-5]

1: 116 to 117 °C; 2: 133 to 134 °C; 3: 160 to 161 °C; 4: 136 to 138 °C
